Where do these numbers come from? They come from the supplement of paper PMC7125110.

B1: glmS ribozyme (parent)
chain: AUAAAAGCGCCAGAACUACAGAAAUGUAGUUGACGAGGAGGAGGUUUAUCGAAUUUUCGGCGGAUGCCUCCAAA

Variants of: B1
Assay Protocol: self-cleavage kobs at 40 uM GlcN6P; higher = faster cleavage; RNA array
Condition: with glucosamine-6-phosphate
Variants at the floor of the assay were thinned out.
Please provide measured self-cleavage kobs at 40 uM GlcN6P for the entries that follow.

Answered examples (4):
# Sequence Input, self-cleavage kobs at 40 uM GlcN6P
measured = [
    ("AUAAAAGCGCCAGAACUACAGAAAUUUAGUUGACGAGGAUGAGGUUUAUCGAAUUUUCGGCGGAUGCCUCCAAA", "0.000119 s⁻¹"),
    ("AUAAAAGAGCCAGAACUACAGAAAUGUAGUUGACGAGGAGGAGGUUUAUCGAAUUUUCGGCGGAUUCCUCCAAA", "< 1e-05 s⁻¹"),
    ("AUAAAAGCGCCAGAACUACAGAAAUGUAGUUGACGAGGAGGAGGUUUAUCGAAUUUUCGGCGGAUGCUUUUAAA", "< 1e-05 s⁻¹"),
    ("AUAAAAGCGCCAGAACUACAGAAAUGUAUUUGACUAGGAGGAGGUUUAUCGAAUUUUCGGCGGAUGCCUUCAAA", "< 1e-05 s⁻¹"),
]

Please state self-cleavage kobs at 40 uM GlcN6P for every variant in the list that follows.
1. AUAAAAGCGCCAGAACUACAGAAAUGUAGUUGACGAAGAGGAUGUUUAUCGAAUUUUCGGCGGAUGCCUCCAAA
2. AUAAAAGCGCCAGAACUACAGAAAUGUAGUUGACGAGGAGGAGGUUUUUCGAAUUUUCGGCGGAGGCCUCCAAA
3. AUAAAAGCGCCAGAACUACAGAAAUGUAGUUGACGCGGAGGAGGUUUAUUGAAUUUUCGGCGGAUGCCUCCAAA

Result:
1. < 1e-05 s⁻¹
2. < 1e-05 s⁻¹
3. < 1e-05 s⁻¹

Please state self-cleavage kobs at 40 uM GlcN6P for every variant in the list that follows.
1. AUAAAAGCGCCAGAACUACAGAAAUGUAGUUGUCGAGGAGGAGGUUUAUCGAAUUAUCGGCGGAAGCCUCCAAA
2. AUAAAAGCGCCAGAACUACAGAAAUGUAGUUGACGAGGACGAGAUUUAUCGAAUUUUCGGCGGAUGCCUCCAAA
3. AUAAAAGUGCCAGAACUACAGAAAUGUAGUUGACGAGUCGGAGGUUUAUCGAAUUUUAGGCGGAUGCCUCCAAA
4. AUAAAAGCGCCAGCACUACAGAAAUGUAGUUGAAGAGGAGGAGGUUUAUCGAAUUUUCGGCGGAUGCCUCCAAA
5. AUAAAAGCGCCAGCACUACAGAAAUGUAGUUAACGAGGAGGAGGUUUAUCGAAUUUUCGGCGGAUGCCUCCAAA

Result:
["< 1e-05 s⁻¹", "< 1e-05 s⁻¹", "< 1e-05 s⁻¹", "< 1e-05 s⁻¹", "0.000121 s⁻¹"]

Please state self-cleavage kobs at 40 uM GlcN6P for every variant in the list that follows.
1. AUAAAAGCGCCAGAACUACAGAAAUGUAGUUGACGAGGAGGAGGUUUCUCGAAUUUUCGGCGGAUGCGUCCAAA
2. AUAAAAGCGCCAGAACUACAGAAAUGUAGUUGACGAGGAGGAGGUUUAUCGAAUUCUCGGCGGAUGCUUCCAAA
3. AUAAAAGCGCCAGAACUACAGAAAUGUAGUUGACGAGGAGGAGGUUUAUCGAAUUGUCGGCGCAUGCCUCCAAA
4. AUAAAAGCGCCAGAACUACAGAAAUUUAGUUGACGAGGAGGAGGUGUAUCGAAUUUUCGGCGGAUGCCUCCAAA
5. AUAAAAGCGCCAGAAAUACAGAAAUGUAUUUGACGAGGAGGAGGUUUAUCGAAUUUUCGGCGGAUGCCUCCAAA
6. AUAAAAGCGCUAGAACUACAGAAAUGUAGUUGACGAGGAGGAGGUCUAUCGAAUUUUCGGCGGAUGCCUCCAAA
7. AUAAAAGCGCCAGAGCUACAGAAAUGUACUUGACGAGGAGGAGGUUUAUCGAAUUUUCGGCGGAUGCCUCCAAA

Result:
["< 1e-05 s⁻¹", "< 1e-05 s⁻¹", "< 1e-05 s⁻¹", "0.000306 s⁻¹", "0.000701 s⁻¹", "< 1e-05 s⁻¹", "3.64e-05 s⁻¹"]

Please state self-cleavage kobs at 40 uM GlcN6P for every variant in the list that follows.
1. AUAAAUGCGCCGGAAUUACAGAAAUGUAGUUGACGAGAAGGAGGUUUAUCGAAAUUUCGGCGGAUGCAUCCAAA
2. AUAAAAGCCCCAGAACUACAGAAAUGUAGUUGACGAGGAGGAGGUUUAUCGAAUUUUCGGCGGAAGCCUCCAAA
3. AUAAACGCGCCAGAACUACAGAAAUGUAGUUGACGAGGAGGACGUUUAUCGAAUUUUCGGCGAAUGCCUCAAAA
4. AUAAAAGCGCCUGAACUACAGAAAUGUAGUUAUCGAGGAGGAGGUUUAUCGAAUUUUCGGCGGAUGCCUCCAAA
5. AUAAAAGCGCCAUAACUACAGAAAUGUAGUUGACGAGGAGGAGGAUUAUCGAAUUUUCGGCGGAUGCCUCCAAA
6. AUAAAAGCGCCAGAACUACAGAAAUGUAGUCGACGAGGAGGAGGUUUAUCGAAUUUUCGGCGGAUGCCCACAAA

Result:
["8.86e-05 s⁻¹", "< 1e-05 s⁻¹", "< 1e-05 s⁻¹", "< 1e-05 s⁻¹", "4.66e-05 s⁻¹", "< 1e-05 s⁻¹"]
